Values compiled from ChEMBL document CHEMBL1153737.

Listing of recorded selectivity ratio by entry.
Assay: Selectivity index, ratio of IC50 for human THP1 cells to IC50 for Plasmodium falciparum W2
Assay type: toxicity, cell-based, THP-1
Details: read-out: Ratio IC50
Output spec: single numeric token, no unit.

{"columns": ["smi", "selectivity ratio"],
 "data": [
  ["COc1ccc2c(-c3ccc(OC)c(OC)c3)cc(=O)oc2c1", 1]
]}

Please find the next compound below.
Look up selectivity ratio: COc1ccc(-c2cc(=O)oc3cc(OC)c(OC)c(OC)c23)cc1OC
3

====

Test: Selectivity index, ratio of IC50 for human THP1 cells to IC50 for Leishmania donovani MHOM/IN/80/DD8 amastigotes
Format: toxicity, cell-based, THP-1
Conditions: read-out: Ratio IC50
observed property: selectivity ratio

{"columns": ["compound", "result"],
 "data": [
  ["COc1ccc(-c2cc(=O)oc3ccccc23)cc1OC", "> 6.7"],
  ["COc1ccc(-c2cc(=O)oc3cc(OC)c(OC)c(OC)c23)cc1OC", 18.1],
  ["COc1ccc(-c2cc(=O)oc3cc(OC)c(OC)cc23)cc1OC", "> 265"]
]}

Look up selectivity ratio: COc1ccc2oc(=O)cc(-c3ccc(OC)c(OC)c3)c2c1
> 29.6

Look up selectivity ratio: COc1cc(-c2cc(=O)oc3cc(OC)c(OC)cc23)ccc1O
> 4.5

Look up selectivity ratio: C[C@@H]1[C@H](O)[C@@H](C)/C=C/C=C/C=C/C=C/C=C/C=C/C=C/[C@H](O[C@@H]2O[C@H](C)[C@@H](O)[C@H](N)[C@@H]2O)C[C@@H]2O[C@](O)(C[C@@H](O)C[C@@H](O)[C@H](O)CC[C@@H](O)C[C@@H](O)CC(=O)O[C@H]1C)C[C@H](O)[C@H]2C(=O)O [AMPHOTERICIN B]
140
